Below is a list of entries, each paired with its recorded apparent Kd value.
System: MS2 coat protein
experiment summary: apparent Kd, MS2 coat protein; higher = weaker binding; RNA-MaP array; FMN 200 µM where present
condition details: designed as: OFF switch for flavin mononucleotide; no ligand
Write the number in nM without appending the unit.

Measured apparent Kd of `GGAUCGAAAGUGAGGAUAUGCUGGUCCUUGGAUCAGCAGAAGGCACAUGAGGAUCACCCAUGUGGUAACGGUCC` : 33.8

---
Measured apparent Kd of `GGAUAGUGUCGUUAUCCGUAGCGAACAUGAGGAUCACCCAUGUAGGAUAUGUUAUUAAACUAAUAACAGAAGGGCGUGAGUCUC` : 429

Measured apparent Kd of `UUCGGCGCAGGAUAUGCGGUUCUGUGUUGAAUCGGCGCGGGACAUGAGGAUCACCCAUGUAGAAGGGUGUUGGG` : 361

Measured apparent Kd of `AAGUCGUGAGGAUAUACAUGGAUAUACAUUUAUGUAGAACUACAUGAGGAUCACCCAUGUAGAAGGCACGAAUA` : 56.2

Measured apparent Kd of `AAUAUGUCAUCAGGAUAUCGAGACCGGCGAGUACGAGAAGGGAUGACAUGAGGAUCACCCAUGUGAGACGCGUGAUUUGCAGGU` : 105

Measured apparent Kd of `CGUUCAGAGAACGAUACGAAUAGACAUGAGGAUCACCCAUGUAGAAGGACAACGGAAUAAACGUUGUAGGAUAUACAUUUAGUG` : 41.3

Measured apparent Kd of `UCGCUGUCAGGAUAUCUUAUAUAGAACAUGAGGAUCACCCAUGUUCAUGUAUUCUGUGAGAGAGAAGGGACUCCUU` : 15

Measured apparent Kd of `UUUCUUGGGCAAGGAUAUCCUGUGCGGUUCCGGCUCGUGUCUGUCACAUGAGGAUCACCCAUGUGGGAGAAGGUGCCUGCAGUC` : 6.22

Measured apparent Kd of `UUUAUUUCGGCAGGAUAUACAUGUAUAUAUAUUUCUUUAUAUCUUAUUACAUGAGGAUCACCCAUGUAGAAGGGCCUUCUUAUC` : 47.7

---

System: MS2 coat protein
experiment summary: apparent Kd, MS2 coat protein; higher = weaker binding; RNA-MaP array
condition details: ligand present: flavin mononucleotide; designed as: OFF switch for flavin mononucleotide
Below is a list of entries, each paired with its recorded apparent Kd value.
Write the number in nM without appending the unit.

Measured apparent Kd of `GAUCGUUGGGUAAGGAUAUAAGUUUAUUGCUUGGGUUAGAAGGUACAUGAGGAUCACCCAUGUAGGUGAGUCAC` : 61.8

---
Measured apparent Kd of `GCAAGGGUGCGAGGAUAUAUUAGAGUCUCUGGAAUAGAAGGCGCAAACAGUGUACAUGAGGAUCACCCAUGUGUAUAUACUGCU` : 10.2

Measured apparent Kd of `CGGAAUUCAGGAUAUGGCAUAUCCUACAUGAGGAUCACCCAUGUAUGACCCGUGUGCCGGCCAGAAGGGAACGCUG` : 12

Measured apparent Kd of `UCUUUUCAACAGAAGGAAUGCAGGCGAUAUGAUUGUUUCCGUCAGACAUGAGGAUCACCCAUGUAUUAGGAUAUGUGAAACAGU` : 7.15

---

System: MS2 coat protein
experiment summary: apparent Kd, MS2 coat protein; higher = weaker binding; RNA-MaP array; theophylline 2 mM where present
condition details: ligand present: theophylline; designed as: ON switch for theophylline
Below is a list of entries, each paired with its recorded apparent Kd value.
Write the number in µM without appending the unit.

Measured apparent Kd of `AGUACUCGAACGGAUACCAGCCGGACAUGAGGAUCACCCAUGUCCUACCAAUGUUCGGUUGGCCCUUGGCAGCCGUUCGUGUACA` : 0.0352

---
Measured apparent Kd of `UAUACAUGAGGAUCACCCAUGUGCCAUGAUACCAGACAUGAAAAUGUCCCUUGGCAGCAUGGGAAAUGUAUAGCGGGAAACCCGA` : 0.704

Measured apparent Kd of `AGUAAUCUAAGAGAUACCAGACGGUAUAUAACAUGAGGAUCACCCAUGUUUUGGGUGUACGUCCCUUGGCAGCUCAAAAUGAUAA` : 0.115

Measured apparent Kd of `AUACAUGAGGAUCACCCAUGUAUAGUCGAUACCAGCUCAAGGAAGAGCCCUUGGCAGCGACACUGGUAUCCAUGGGUGAUACCAG` : 0.0315

---

Test system: MS2 coat protein
experiment summary: apparent Kd, MS2 coat protein; higher = weaker binding; RNA-MaP array
condition details: ligand present: flavin mononucleotide; designed as: OFF switch for flavin mononucleotide
Below is a list of entries, each paired with its recorded apparent Kd value.

Answered cases to consult:
MS2 coat protein assay, sequence `CCACCAACAGGAUAUACGCUGAGGUUUUCUAACGGUCAUGUACAUGAGGAUCACCCAUGUAGAAGGGUUGUAGG` , recorded apparent Kd = 55.6 nM

MS2 coat protein assay, sequence `AUGCUGUGAGGAUAUCAGUCCCAGAAAAGCUGGCCGCUGACUGAGAAGGCACAUGAGGAUCACCCAUGUUCAAC` , recorded apparent Kd = 15.7 nM

MS2 coat protein assay, sequence `AGGCCCUCACAUGAGGAUCACCCAUGUACGUACGCAGGUGGAAGAAGGCCGGUACAACCUAAUCCGGAGGAUAUUCGAAUUAAC` , recorded apparent Kd = 199 nM

MS2 coat protein assay, sequence `UUGCAACAAACAGGAUAUACGCGGACUUCACGGGUAGAAGGGUUCGACCAGGAGAUAUCCCACAUGAGGAUCACCCAUGUCGUC` , recorded apparent Kd = 130 nM

MS2 coat protein assay, sequence `CCUGCAGGUCAGGAUAUCAUAUCUGGCUAACUAUGAGAAGGGACAACAUGAGGAUCACCCAUGUGGUGAUAACA` , recorded apparent Kd = 509 nM

# context switch: different sequence, same apparent Kd
MS2 coat protein assay, sequence `UUAAAACUAGGAUAUACAUGAGGAUCACCCAUGUGAACACACAAACAAAGAAAAUAAUGUAGAAGGAGACUAUA` , recorded apparent Kd = 8.87 nM

---

Tested on: MS2 coat protein
experiment summary: apparent Kd, MS2 coat protein; higher = weaker binding; RNA-MaP array; FMN 200 µM where present
condition details: designed as: OFF switch for flavin mononucleotide; no ligand
Below is a list of entries, each paired with its recorded apparent Kd value.
Could you kindly put the unit after your number?

MS2 coat protein assay, sequence `AAGAGCGAUUCUCCCUUCCUACAUGAGGAUCACCCAUGUACGAGAAGGCGCCGUGUAUACCACGGUGAGGAUAUCGUACGUUAC` , recorded apparent Kd = 5.23 nM

MS2 coat protein assay, sequence `UUAUUUAGUGUGAGGAUAUGCUGGUCCAUAGAUCAGCAGAAGGCACAUGAGGAUCACCCAUGUAAUAUAUUAAU` , recorded apparent Kd = 26.5 nM

---
MS2 coat protein assay, sequence `UUGUUAUGUGUAGGAUAUGCAUAUUAUUAUUAUGCAGAAGGACAUGAGGAUCACCCAUGUGUAUUGUUAUUAUAUAUUAUAUAU` , recorded apparent Kd = 22.8 nM

MS2 coat protein assay, sequence `ACAAAGUGAGGAUAUGCUAUUAUACAUUAUUGUUAUUAUUUGCAGAAGGCACAUGAGGAUCACCCAUGUAAGAA` , recorded apparent Kd = 29.8 nM

MS2 coat protein assay, sequence `CUCCGUGGCGAGAAGGACGGAAUUUAAGGUUCUGUAGGAUAUCGAAACAUGAGGAUCACCCAUGUAUUGAUCGGGUGCAGUGUG` , recorded apparent Kd = 26.9 nM

MS2 coat protein assay, sequence `GGUGCGUAUGUGAGGAUAUGCUGGUCCUUGGCUCGGCAGAAGGCACAUGAGGAUCACCCAUGUGGUGUCGUACA` , recorded apparent Kd = 112 nM

MS2 coat protein assay, sequence `GUCAGCUCGUGAGGAUAUACAACACUGCUUCGGCAGUGUAUUAAGACCACAUGAGGAUCACCCAUGUAGAAGGCACGAGCUGAU` , recorded apparent Kd = 5.18 nM

MS2 coat protein assay, sequence `CCUCCACAUUAGGAUAUCAUCAAACUAUUGUGAUGAGAAGGAAUGACAUGAGGAUCACCCAUGUUAUCGUGAUG` , recorded apparent Kd = 20.9 nM

MS2 coat protein assay, sequence `CUUUUGUGAGGAUAUCAGUAGUAAAUAAAUAUAAUUACUACUGAGAAGGCACAUGAGGAUCACCCAUGUUCCUC` , recorded apparent Kd = 39.7 nM

MS2 coat protein assay, sequence `UGUGCGUAUGUGAGGAUAUGCUGGUCCUUGGAUCAGCAGAAGGCACAUGAGGAUCACCCAUGUGGUGUCGUACC` , recorded apparent Kd = 314 nM

MS2 coat protein assay, sequence `UUGUUACAUGAGGAUCACCCAUGUGAGGAUAUGGCCCGCCCGGCGUGAGCUGGUUUUGUCAGAAGGCGCGUGGG` , recorded apparent Kd = 111 nM

MS2 coat protein assay, sequence `UCGUGAAGGACAGGAUAUGGACAUGAGGAUCACCCAUGUACAUGGGAAUAUAUACUGCAUUUAUACUAGAAGGGUUACAUAAAU` , recorded apparent Kd = 12.8 nM

MS2 coat protein assay, sequence `GCACUGGAUGUAGGAUAUCAGGACGAUAAGUCCUGAGAAGGACAUGAGGAUCACCCAUGUAAAAACUUCCCAGUGCAUAAUAUA` , recorded apparent Kd = 15.4 nM

This collection of values is drawn from the EternaBench riboswitch data.
